Test system: infected muscle tissue
Test: in vivo
Parameters: species or system New Zealand white rabbits
Details: rabbit, iv
Numbered stars: 1 amine (or outer) side, 2 acyl side, 3 side chain; on linkers, the order of the positions; unused ones are H or OH. Ends that are not written are not given here. * marks the point of attachment. BAT = N6,N9-bis(2-methyl-2-mercaptopropyl)-6,9-diazanonanoic acid (chelator), CC(C)(S)CNCCN(CCCCC(=O)*)CC(C)(C)S; C(Acm) = CC(=O)NCSC[C@H](N[*:1])C(=O)[*:2]; Acm = CC(=O)NC*
Listing: Control Muscle (% ID/g) of selected substances
Return type: number; implicit unit % ID/g.

Record excerpt, results attached:
| SUBSTANCE | Control Muscle (% ID/g) |
| --- | --- |
| CAcm GCAcm (VGVAPG)3 amide (C(Acm)GC(Acm)VGVAPGVGVAPGVGVAPG-NH2; also: Tc-99m label) | 0.0017 |
| [BAT].(VPGVG)4 amide ({BAT}-VPGVGVPGVGVPGVGVPGVG-NH2; also: Tc-99m label) | 0.0006 |
| acetyl.KKKKKCAcm GCAcm GGPLYKKIIKKLLES (Ac-KKKKKC(Acm)GC(Acm)GGPLYKKIIKKLLES; also: Tc-99m label) [Ac.KKKKKCAcm GCAcm GGPLYKKIIKKLLES] | 0.0019 |
| acetyl.CAcm GCAcm GGG(VPGVG)4 amide (Ac-C(Acm)GC(Acm)GGGVPGVGVPGVGVPGVGVPGVG-NH2; also: Tc-99m label) [Ac.CAcm GCAcm GGG(VPGVG)4 amide] | 0.0077 |
| acetyl.CGGGPLYKKIIKKLLES (Ac-CGGGPLYKKIIKKLLES) [Ac.CGGGPLYKKIIKKLLES] | 0.0050 |

Could you now look at the following substance, please?
Exercise: Given the entry (acetyl.CCAcm GCAcm PLYKKIIKKLLES)2.BSME ({Ac-Cys-C(Acm)-Gly-C(Acm)}-PLYKKIIKKLLES; also: dimer via BSME, Tc-99m label) [(Ac.CCAcm GCAcm PLYKKIIKKLLES)2 BSME] , what Control Muscle (% ID/g) was observed with infected muscle tissue?
Key: 0.0011

###

Listing: Ratio of Infected/Blood of selected substances
Tested on: infected muscle tissue
Assay: in vivo
Set-up: species or system New Zealand white rabbits
Settings: rabbit
Ends that are not written are not given here. * marks the point of attachment. Acm = CC(=O)NC*
Reply: number alone, nothing else.

Record excerpt, results attached:
| SUBSTANCE | ASSAY TARGET | Ratio of Infected/Blood |
| --- | --- | --- |
| CAcm GCAcm (VGVAPG)3 amide (C(Acm)GC(Acm)VGVAPGVGVAPGVGVAPG-NH2; also: Tc-99m label) | infected muscle tissue | 1.69 |
| acetyl.KKKKKCAcm GCAcm GGPLYKKIIKKLLES (Ac-KKKKKC(Acm)GC(Acm)GGPLYKKIIKKLLES; also: Tc-99m label) [Ac.KKKKKCAcm GCAcm GGPLYKKIIKKLLES] | infected muscle tissue | 0.93 |

Could you now look at the following substance, please?
Exercise: Item acetyl.CGGGPLYKKIIKKLLES (Ac-CGGGPLYKKIIKKLLES) [Ac.CGGGPLYKKIIKKLLES] has what recorded Ratio of Infected/Blood?
Key: 0.74

###

System: infected muscle tissue
Test: in vivo
Parameters: species or system New Zealand white rabbits
Conditions: rabbit
Procedure: After 24 h, the animals were sedated by i.m. injection of ketamine and xylazine, and then injected i.v. with Tc-99m labeled peptide (≤150 μg, 2-10 mCi). The animals were positioned supine in the field of view of a gamma camera (LEAP colimator/photopeaked for Tc-99m) and imaged over the first hour post-injection, and then at approximately 1 h intervals over the next three hours post injection. Animals were allowed to recover between image acquisitions and re-anesthetized as needed. […]
Numbered stars: 1 amine (or outer) side, 2 acyl side, 3 side chain; on linkers, the order of the positions; unused ones are H or OH. Square brackets hold non-standard residues; d marks the D form. Ends that are not written are not given here. * marks the point of attachment. BAT = N6,N9-bis(2-methyl-2-mercaptopropyl)-6,9-diazanonanoic acid (chelator), CC(C)(S)CNCCN(CCCCC(=O)*)CC(C)(C)S; C(Acm) = CC(=O)NCSC[C@H](N[*:1])C(=O)[*:2]; pGlu = O=C1CC[C@@H](C(=O)O)N1; Picolinoyl = O=C(c1ccccn1)*; Acm = CC(=O)NC*
Listing: Ratio of Infected/Blood of selected substances

| SUBSTANCE | Ratio of Infected/Blood |
| --- | --- |
| (acetyl.CCAcm GCAcm PLYKKIIKKLLES)2.BSME ({Ac-Cys-C(Acm)-Gly-C(Acm)}-PLYKKIIKKLLES; also: dimer via BSME, Tc-99m label) [(Ac.CCAcm GCAcm PLYKKIIKKLLES)2 BSME] | 0.84 |
| [BAT].GGPLYKKIIKKLLES ({BAT}-GGPLYKKIIKKLLES; also: Tc-99m label) | 0.50 |
| acetyl.CAcm GCAcm GGG(VPGVG)4 amide (Ac-C(Acm)GC(Acm)GGGVPGVGVPGVGVPGVGVPGVG-NH2; also: Tc-99m label) [Ac.CAcm GCAcm GGG(VPGVG)4 amide] | 0.63 |
| pGlu.GVNDNEEGFFSARCAcm GCAcm amide ([pGlu]GVNDNEEGFFSARC(Acm)GC(Acm)-NH2; also: Tc-99m label) | 0.68 |
| [BAT].(VPGVG)4 amide ({BAT}-VPGVGVPGVGVPGVGVPGVG-NH2; also: Tc-99m label) | 1.68 |

Could you now look at the following substance, please?
Exercise: Given the entry Pic.GC(VGVAPG)3 amide (Picolinoyl-GCVGVAPGVGVAPGVGVAPG-NH2; numbers in words are those of the source; also: Tc-99m label) [PicGC(VGVAPG)3 amide] , what Ratio of Infected/Blood was observed with infected muscle tissue?
Key: 0.69

###

Listing: Ratio of Infected/Control of selected substances
Test system: infected muscle tissue
Assay: in vivo
Set-up: species or system New Zealand white rabbits
Details: rabbit
Ends that are not written are not given here. * marks the point of attachment. BAT = N6,N9-bis(2-methyl-2-mercaptopropyl)-6,9-diazanonanoic acid (chelator), CC(C)(S)CNCCN(CCCCC(=O)*)CC(C)(C)S; Acm = CC(=O)NC*
Reply: number alone, nothing else.

Record excerpt, results attached:
| SUBSTANCE | ASSAY TARGET | Ratio of Infected/Control |
| --- | --- | --- |
| acetyl.CAcm GCAcm GGG(VPGVG)4 amide (Ac-C(Acm)GC(Acm)GGGVPGVGVPGVGVPGVGVPGVG-NH2; also: Tc-99m label) [Ac.CAcm GCAcm GGG(VPGVG)4 amide] | infected muscle tissue | 3.97 |
| CAcm GCAcm (VGVAPG)3 amide (C(Acm)GC(Acm)VGVAPGVGVAPGVGVAPG-NH2; also: Tc-99m label) | infected muscle tissue | 3.94 |
| [BAT].GGPLYKKIIKKLLES ({BAT}-GGPLYKKIIKKLLES; also: Tc-99m label) | infected muscle tissue | 7.00 |

Could you now look at the following substance, please?
Exercise: Item acetyl.CGGGPLYKKIIKKLLES (Ac-CGGGPLYKKIIKKLLES) [Ac.CGGGPLYKKIIKKLLES] has what recorded Ratio of Infected/Control?
Key: 4.70

###

Listing: Control Muscle (% ID/g) of selected substances
Tested on: infected muscle tissue
Test: in vivo
Parameters: species or system New Zealand white rabbits
Details: rabbit, iv
Square brackets hold non-standard residues; d marks the D form. Ends that are not written are not given here. * marks the point of attachment. BAT = N6,N9-bis(2-methyl-2-mercaptopropyl)-6,9-diazanonanoic acid (chelator), CC(C)(S)CNCCN(CCCCC(=O)*)CC(C)(C)S; pGlu = O=C1CC[C@@H](C(=O)O)N1; Picolinoyl = O=C(c1ccccn1)*; Acm = CC(=O)NC*
Return type: number; implicit unit % ID/g.

Record excerpt, results attached:
| SUBSTANCE | Control Muscle (% ID/g) |
| --- | --- |
| [BAT].GGPLYKKIIKKLLES ({BAT}-GGPLYKKIIKKLLES; also: Tc-99m label) | 0.0003 |
| pGlu.GVNDNEEGFFSARCAcm GCAcm amide ([pGlu]GVNDNEEGFFSARC(Acm)GC(Acm)-NH2; also: Tc-99m label) | 0.0029 |

Exercise: Item Pic.GC(VGVAPG)3 amide (Picolinoyl-GCVGVAPGVGVAPGVGVAPG-NH2; numbers in words are those of the source; also: Tc-99m label) [PicGC(VGVAPG)3 amide] has what recorded Control Muscle (% ID/g)?
Key: 0.0019

###

Tested on: infected muscle tissue
Assay: in vivo
Parameters: species or system New Zealand white rabbits
Conditions: rabbit, iv
Numbered stars: 1 amine (or outer) side, 2 acyl side, 3 side chain; on linkers, the order of the positions; unused ones are H or OH. Square brackets hold non-standard residues; d marks the D form. Ends that are not written are not given here. * marks the point of attachment. BAT = N6,N9-bis(2-methyl-2-mercaptopropyl)-6,9-diazanonanoic acid (chelator), CC(C)(S)CNCCN(CCCCC(=O)*)CC(C)(C)S; C(Acm) = CC(=O)NCSC[C@H](N[*:1])C(=O)[*:2]; pGlu = O=C1CC[C@@H](C(=O)O)N1; Picolinoyl = O=C(c1ccccn1)*; Acm = CC(=O)NC*
Listing: Blood (% ID/g) of selected substances
Return type: number; implicit unit % ID/g.

| SUBSTANCE | Blood (% ID/g) |
| --- | --- |
| [BAT].(VPGVG)4 amide ({BAT}-VPGVGVPGVGVPGVGVPGVG-NH2; also: Tc-99m label) | 0.002 |
| (acetyl.CCAcm GCAcm PLYKKIIKKLLES)2.BSME ({Ac-Cys-C(Acm)-Gly-C(Acm)}-PLYKKIIKKLLES; also: dimer via BSME, Tc-99m label) [(Ac.CCAcm GCAcm PLYKKIIKKLLES)2 BSME] | 0.010 |
| acetyl.CAcm GCAcm GGG(VPGVG)4 amide (Ac-C(Acm)GC(Acm)GGGVPGVGVPGVGVPGVGVPGVG-NH2; also: Tc-99m label) [Ac.CAcm GCAcm GGG(VPGVG)4 amide] | 0.049 |
| acetyl.KKKKKCAcm GCAcm GGPLYKKIIKKLLES (Ac-KKKKKC(Acm)GC(Acm)GGPLYKKIIKKLLES; also: Tc-99m label) [Ac.KKKKKCAcm GCAcm GGPLYKKIIKKLLES] | 0.006 |
| pGlu.GVNDNEEGFFSARCAcm GCAcm amide ([pGlu]GVNDNEEGFFSARC(Acm)GC(Acm)-NH2; also: Tc-99m label) | 0.024 |

Exercise: Item [BAT].GGPLYKKIIKKLLES ({BAT}-GGPLYKKIIKKLLES; also: Tc-99m label) has what recorded Blood (% ID/g)?
Key: 0.004

Exercise: Item CAcm GCAcm (VGVAPG)3 amide (C(Acm)GC(Acm)VGVAPGVGVAPGVGVAPG-NH2; also: Tc-99m label) has what recorded Blood (% ID/g)?
Key: 0.011

Exercise: Item Pic.GC(VGVAPG)3 amide (Picolinoyl-GCVGVAPGVGVAPGVGVAPG-NH2; numbers in words are those of the source; also: Tc-99m label) [PicGC(VGVAPG)3 amide] has what recorded Blood (% ID/g)?
Key: 0.015

Exercise: Item acetyl.CGGGPLYKKIIKKLLES (Ac-CGGGPLYKKIIKKLLES) [Ac.CGGGPLYKKIIKKLLES] has what recorded Blood (% ID/g)?
Key: 0.032
